assay: Stability in human liver microsomes; format: in vitro ADME; conditions: human, liver microsomes, Table S4; read-out: HLM Stability t1/2
quantity name: half-life (h)

I: OCc1cn(-c2ccc(Cl)c(C(F)(F)F)c2Cl)nn1
II: OCc1cn(-c2ccc(Cl)c(Cl)c2)nn1
Query :: Parameter metric = half-life. Return the lower-valued option from I and II . Response format: the label of the selected entry.
Result :: II
(II: 1.92 h, I: 9.21 h)

====

Biological target: CYP1A2 (Homo sapiens, UniProt P05177)
Sequence (P05177 1-516): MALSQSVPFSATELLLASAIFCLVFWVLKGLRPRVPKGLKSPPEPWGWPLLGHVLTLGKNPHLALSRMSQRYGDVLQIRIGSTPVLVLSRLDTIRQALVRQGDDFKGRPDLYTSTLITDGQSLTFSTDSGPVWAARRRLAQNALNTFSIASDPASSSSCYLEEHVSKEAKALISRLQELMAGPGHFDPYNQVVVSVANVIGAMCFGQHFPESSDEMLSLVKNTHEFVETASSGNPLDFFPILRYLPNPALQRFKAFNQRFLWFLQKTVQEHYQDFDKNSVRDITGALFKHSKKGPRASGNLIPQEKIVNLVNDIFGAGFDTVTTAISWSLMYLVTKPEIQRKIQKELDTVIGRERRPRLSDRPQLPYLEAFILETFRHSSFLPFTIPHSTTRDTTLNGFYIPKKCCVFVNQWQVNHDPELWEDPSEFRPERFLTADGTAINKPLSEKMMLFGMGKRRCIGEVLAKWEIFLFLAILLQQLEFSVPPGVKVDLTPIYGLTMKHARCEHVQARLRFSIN
Assay: CYP450 inhibition in HLM
Settings: read-out: CYP inhibition IC50, 1A2; HLM
quantity name: IC50 (µM)
Note: unit µM is implicit; provide only the numeric part.

Query :: Consider the molecule FC(F)(F)c1c(Cl)ccc(-n2ccnn2)c1Cl and give its measured IC50.
Result :: 0.96

====

experiment: Permeability using Caco-2 cell monolayer; conditions: human, Caco-2, pH 7.4, Caco-2 A to B % Recovery
quantity name: recovery at 2 h, 2 µM (%)
Please give a number only; it is taken to be in %.

Query :: Which recovery at 2 h, 2 µM is reported for this molecule? FC(F)(F)c1c(Cl)ccc(-n2ccnn2)c1Cl
Result :: 89.1

====

biological target: UniProt:P33261; assay: CYP450 inhibition in HLM; conditions: read-out: IC50 CYP2C19/S-Mephenytoin; (+)NADPH pre-incubation
Sequence (P33261 whole entry): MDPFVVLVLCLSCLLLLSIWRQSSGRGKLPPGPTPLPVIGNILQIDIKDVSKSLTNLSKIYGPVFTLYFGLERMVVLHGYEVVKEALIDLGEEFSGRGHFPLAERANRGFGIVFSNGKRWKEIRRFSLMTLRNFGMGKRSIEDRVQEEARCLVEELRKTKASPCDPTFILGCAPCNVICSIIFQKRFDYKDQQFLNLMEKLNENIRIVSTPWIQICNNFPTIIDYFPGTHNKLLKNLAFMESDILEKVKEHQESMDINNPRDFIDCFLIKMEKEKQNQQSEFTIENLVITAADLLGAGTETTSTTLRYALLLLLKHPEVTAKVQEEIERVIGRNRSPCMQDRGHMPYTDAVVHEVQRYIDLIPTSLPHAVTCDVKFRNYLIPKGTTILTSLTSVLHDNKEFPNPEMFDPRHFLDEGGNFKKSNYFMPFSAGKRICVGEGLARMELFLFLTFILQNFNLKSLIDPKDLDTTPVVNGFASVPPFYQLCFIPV
quantity name: IC50 (µM)
The response must be a number in µM with no trailing unit.

Query :: Report IC50 for FC(F)(F)c1c(Cl)ccc(-n2ccnn2)c1Cl please.
Result :: 8.07

====

Target: CYP1A2 (Homo sapiens, UniProt P05177)
Sequence (P05177 1-516): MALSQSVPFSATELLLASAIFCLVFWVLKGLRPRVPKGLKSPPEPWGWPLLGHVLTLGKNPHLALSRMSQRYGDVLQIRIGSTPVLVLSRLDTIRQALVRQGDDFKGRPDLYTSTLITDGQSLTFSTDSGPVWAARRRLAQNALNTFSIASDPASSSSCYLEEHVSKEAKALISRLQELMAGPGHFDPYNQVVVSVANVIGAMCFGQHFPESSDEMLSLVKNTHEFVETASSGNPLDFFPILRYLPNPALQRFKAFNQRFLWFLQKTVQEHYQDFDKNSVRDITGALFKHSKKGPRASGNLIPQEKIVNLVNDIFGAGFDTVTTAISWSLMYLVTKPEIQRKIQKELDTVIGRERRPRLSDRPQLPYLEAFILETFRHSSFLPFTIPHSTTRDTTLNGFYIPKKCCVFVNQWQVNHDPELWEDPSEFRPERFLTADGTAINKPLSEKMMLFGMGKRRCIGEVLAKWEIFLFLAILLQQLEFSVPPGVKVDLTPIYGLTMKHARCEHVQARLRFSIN
Experiment: CYP450 inhibition in HLM
Conditions: read-out: IC50 CYP1A2/Phenacetin; (-)NADPH pre-incubation
quantity name: pIC50
Would you please state pIC50, meaning minus log10 of the concentration in mol/L, as a bare number?

Query :: Item FC(F)(F)c1c(Cl)ccc(-n2ccnn2)c1Cl has what recorded pIC50?
Result :: 6.02

====

target: hERG (Homo sapiens, UniProt Q12809); construct: Eurofins (DiscoverX Safety47); assay: Safety47 hERG assay; format: cell-based
Sequence (Q12809 whole entry): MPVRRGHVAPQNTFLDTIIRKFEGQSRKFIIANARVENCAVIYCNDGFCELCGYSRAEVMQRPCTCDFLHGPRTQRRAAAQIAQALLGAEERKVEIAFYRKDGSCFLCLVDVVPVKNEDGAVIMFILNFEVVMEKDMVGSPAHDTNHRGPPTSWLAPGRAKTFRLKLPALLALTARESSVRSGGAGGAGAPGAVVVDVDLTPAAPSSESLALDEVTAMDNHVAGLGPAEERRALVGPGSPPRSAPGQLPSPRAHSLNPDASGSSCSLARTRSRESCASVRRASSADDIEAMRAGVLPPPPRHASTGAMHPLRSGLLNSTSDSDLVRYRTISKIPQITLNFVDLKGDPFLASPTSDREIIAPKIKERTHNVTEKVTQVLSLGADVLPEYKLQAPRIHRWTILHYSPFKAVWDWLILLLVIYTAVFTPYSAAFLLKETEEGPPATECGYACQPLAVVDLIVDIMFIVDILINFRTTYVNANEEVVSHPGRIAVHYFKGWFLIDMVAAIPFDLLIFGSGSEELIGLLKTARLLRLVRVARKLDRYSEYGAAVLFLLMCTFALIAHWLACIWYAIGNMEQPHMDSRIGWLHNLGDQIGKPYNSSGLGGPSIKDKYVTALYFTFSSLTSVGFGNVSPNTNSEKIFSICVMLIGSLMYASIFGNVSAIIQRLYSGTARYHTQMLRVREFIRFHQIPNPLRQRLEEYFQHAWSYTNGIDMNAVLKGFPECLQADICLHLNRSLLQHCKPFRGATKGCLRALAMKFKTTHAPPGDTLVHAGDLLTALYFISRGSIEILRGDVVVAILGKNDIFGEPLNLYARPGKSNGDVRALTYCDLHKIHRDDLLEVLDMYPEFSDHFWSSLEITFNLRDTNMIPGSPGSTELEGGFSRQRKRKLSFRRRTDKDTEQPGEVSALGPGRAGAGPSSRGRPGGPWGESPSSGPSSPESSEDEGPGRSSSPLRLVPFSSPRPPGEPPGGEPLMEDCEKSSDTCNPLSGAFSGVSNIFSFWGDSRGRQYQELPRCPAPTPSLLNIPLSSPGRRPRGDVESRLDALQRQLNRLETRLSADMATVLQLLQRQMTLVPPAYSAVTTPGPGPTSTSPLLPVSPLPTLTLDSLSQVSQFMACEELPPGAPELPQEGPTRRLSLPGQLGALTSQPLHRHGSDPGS
quantity name: IC50

Query :: Requested read-out: IC50. Entry: FC(F)(F)c1c(Cl)ccc(-n2ccnn2)c1Cl
Result :: > 30 µM

====

system: P-gp (MDR1); assay: in vitro; conditions: dog, MDCK-MDR1, MDCK-MDR1 AB Papp, apical to basal
quantity name: Papp (×10⁻⁶ cm/s)

- compound: "FC(F)(F)c1c(Cl)ccc(-n2ccnn2)c1Cl"
  measure unit: "×10⁻⁶ cm/s"
  Papp: 31.4

P: FC(F)(F)c1c(Cl)cnc(-n2ccnn2)c1Cl
Q: OCc1cn(-c2ccc(Cl)c(C(F)(F)F)c2Cl)nn1
Query :: Which entry has a larger number for Papp, P or Q ? Output the label that corresponds to your choice.
Result :: Q
(Q: 45.9 ×10⁻⁶ cm/s, P: 1.74 ×10⁻⁶ cm/s)

====

assay: Permeability using Caco-2 cell monolayer; conditions: human, Caco-2, pH 7.4, Caco-2 AB Papp, apical to basal; 2.00 μM
quantity name: Papp at 2 h, 2 μM (×10⁻⁶ cm/s)
Lab book: enter the figure in ×10⁻⁶ cm/s, no units written.

Query :: Would you kindly share the measured Papp at 2 h, 2 μM for FC(F)(F)c1c(Cl)ccc(-n2ccnn2)c1Cl [8l] ?
Result :: 49.4

====

assay: Aqueous solubility in PBS (pH 7.4); type: physicochemical; settings: PBS; pH 7.4; n = 2; read-out: Thermodynamic Solubility @ RT, mean
quantity name: solubility thermodynamic (µg/mL)

P: [2H]c1nnn(-c2ccc(Cl)c(C(F)(F)F)c2Cl)c1[2H] [d2-8l]
Q: FC(F)(F)c1c(Cl)cnc(-n2ccnn2)c1Cl
Query :: Which entry shows the lesser value of solubility thermodynamic here, P or Q ? Returns: label corresponding to the selected item.
Result :: P

====

test: in vitro; settings: dog, MDCK-MDR1, MDCK-MDR1 AB Papp, apical to basal
quantity name: Papp (×10⁻⁶ cm/s)

Examples with their reported Papp follow.
- compound: "OCc1cn(-c2ccc(Cl)c(Cl)c2)nn1"
  Papp / ×10⁻⁶ cm/s: 57
- compound: "FC(F)(F)c1c(Cl)ccc(-n2ccnn2)c1Cl"
  Papp / ×10⁻⁶ cm/s: 31
- compound: "OCc1cn(-c2ccc(Cl)c(C(F)(F)F)c2Cl)nn1"
  Papp / ×10⁻⁶ cm/s: 46

P: [2H]c1nnn(-c2ccc(Cl)c(C(F)(F)F)c2Cl)c1[2H] [d2-8l]
Q: FC(F)(F)c1c(Cl)cnc(-n2ccnn2)c1Cl
Query :: Which of these two has the smaller recorded Papp: P or Q ? API: response body contains the label of the selected item.
Result :: Q
(Q: 2 ×10⁻⁶ cm/s, P: 48 ×10⁻⁶ cm/s)

====

experiment: Stability in rat liver microsomes; details: rat, liver microsomes
quantity name: half-life

Query :: GET /values?readout=half-life&item= FC(F)(F)c1c(Cl)ccc(-n2ccnn2)c1Cl
Result :: > 2.42 h

====

test: Metabolic stability in human hepatocytes
quantity name: half-life

Query :: For FC(F)(F)c1c(Cl)ccc(-n2ccnn2)c1Cl [8l] , what is its reported half-life?
Result :: > 3.61 h

====

target: CYP2B6 (Homo sapiens, UniProt P20813); assay: CYP450 inhibition in HLM; settings: read-out: CYP inhibition IC50, 2B6; HLM
Sequence (P20813 whole entry): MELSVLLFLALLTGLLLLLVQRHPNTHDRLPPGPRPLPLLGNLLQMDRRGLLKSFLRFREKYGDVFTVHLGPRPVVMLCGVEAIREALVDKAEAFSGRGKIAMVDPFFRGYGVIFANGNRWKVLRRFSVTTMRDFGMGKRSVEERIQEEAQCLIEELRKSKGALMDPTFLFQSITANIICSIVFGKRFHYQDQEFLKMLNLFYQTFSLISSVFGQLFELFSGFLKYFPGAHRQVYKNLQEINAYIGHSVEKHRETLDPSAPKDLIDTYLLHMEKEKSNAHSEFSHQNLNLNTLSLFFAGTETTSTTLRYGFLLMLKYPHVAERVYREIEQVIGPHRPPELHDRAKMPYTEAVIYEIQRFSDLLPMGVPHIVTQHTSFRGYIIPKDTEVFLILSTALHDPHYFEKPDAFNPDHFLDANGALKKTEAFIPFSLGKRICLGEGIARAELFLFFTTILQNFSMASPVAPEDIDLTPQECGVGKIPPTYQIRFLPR
quantity name: IC50 (µM)
Please state the figure in µM; there is no need to write the unit.

Query :: Given the entry FC(F)(F)c1c(Cl)ccc(-n2ccnn2)c1Cl [8l] , report its measured IC50.
Result :: 5.2

====

experiment: in vitro; settings: dog, MDCK-MDR1, MDCK-MDR1 BA Papp, basal to apical
quantity name: Papp (×10⁻⁶ cm/s)

Worked cases, Papp given:
- compound: "[2H]c1nnn(-c2ccc(Cl)c(C(F)(F)F)c2Cl)c1[2H] [d2-8l]"
  measure unit: "×10⁻⁶ cm/s"
  Papp: 35
- compound: "FC(F)(F)c1c(Cl)ccc(-n2ccnn2)c1Cl"
  measure unit: "×10⁻⁶ cm/s"
  Papp: 39

1: OCc1cn(-c2ccc(Cl)c(C(F)(F)F)c2Cl)nn1
2: OCc1cn(-c2ccc(Cl)c(Cl)c2)nn1
3: FC(F)(F)c1c(Cl)cnc(-n2ccnn2)c1Cl
Query :: Please list these compounds in decreasing order of Papp. Write the labels out in the order the request specifies.
Result :: 2, 1, 3

====

assay: Metabolic stability in mouse hepatocytes; settings: mouse, hepatocytes
quantity name: half-life (min)
Your answer is read as min, so omit the unit and give the number.

- smiles record: "FC(F)(F)c1c(Cl)ccc(-n2ccnn2)c1Cl"
  half-life [min]: 74.1

Kindly consider the entry below.
Query :: Which half-life value belongs to OCc1cn(-c2ccc(Cl)c(C(F)(F)F)c2Cl)nn1 ?
Result :: 35.9
